Where do these numbers come from? They come from patent US11008403.

molecular target: human TfR ECD (human); experiment: SPR
Sequence (chain, as listed by the source): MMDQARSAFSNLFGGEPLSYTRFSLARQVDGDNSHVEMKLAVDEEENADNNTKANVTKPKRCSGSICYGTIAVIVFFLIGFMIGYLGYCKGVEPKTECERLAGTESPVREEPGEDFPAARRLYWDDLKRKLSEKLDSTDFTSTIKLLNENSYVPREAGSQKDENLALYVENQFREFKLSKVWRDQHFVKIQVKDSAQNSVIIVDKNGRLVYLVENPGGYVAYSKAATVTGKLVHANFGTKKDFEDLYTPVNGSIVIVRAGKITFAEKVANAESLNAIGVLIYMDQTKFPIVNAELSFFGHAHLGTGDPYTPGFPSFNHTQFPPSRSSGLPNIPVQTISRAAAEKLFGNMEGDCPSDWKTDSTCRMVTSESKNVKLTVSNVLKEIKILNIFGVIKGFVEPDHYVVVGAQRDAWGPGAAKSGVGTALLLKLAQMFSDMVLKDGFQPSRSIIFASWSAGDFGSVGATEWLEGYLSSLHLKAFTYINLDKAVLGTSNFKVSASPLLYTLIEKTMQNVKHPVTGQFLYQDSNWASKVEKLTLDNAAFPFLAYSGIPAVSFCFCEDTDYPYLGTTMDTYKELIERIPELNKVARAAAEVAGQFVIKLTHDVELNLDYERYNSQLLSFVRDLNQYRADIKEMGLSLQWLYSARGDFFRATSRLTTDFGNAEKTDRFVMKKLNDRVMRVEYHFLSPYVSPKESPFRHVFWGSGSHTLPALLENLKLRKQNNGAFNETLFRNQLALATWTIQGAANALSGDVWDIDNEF
Reported metric: pKd
The quantity pKd is defined as the negative base-10 logarithm of the molar concentration.

Answered cases to consult:
| Binder | Reported metric | Quantitative result |
| --- | --- | --- |
| Hu15G11.HC53A Fab (antibody, V domains shown) VH: EVQLVQSGAEVKKPGASVKVSCKASGYTFTSYWMHWVRQAPGQRLEWIGEINPANGRTNYIEKFKSRATLTVDKSASTAYMELSSLRSEDTAVYYCARGTRAYHYWGQGTMVTVSS VL: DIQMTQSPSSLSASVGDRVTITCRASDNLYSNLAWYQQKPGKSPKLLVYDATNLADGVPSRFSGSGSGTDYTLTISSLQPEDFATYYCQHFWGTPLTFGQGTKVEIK | pKd | 7.89 |
| Hu15G11.v5 Fab (antibody, V domains shown) VH: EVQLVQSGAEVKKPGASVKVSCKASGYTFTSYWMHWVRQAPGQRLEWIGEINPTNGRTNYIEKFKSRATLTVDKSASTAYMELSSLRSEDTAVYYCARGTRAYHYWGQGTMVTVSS VL: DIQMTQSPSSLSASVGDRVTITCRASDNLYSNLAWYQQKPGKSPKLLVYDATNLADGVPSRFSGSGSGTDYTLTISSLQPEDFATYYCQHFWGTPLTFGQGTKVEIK | pKd | 8.15 |

pKd for Hu15G11.HC51A Fab (antibody, V domains shown) VH: EVQLVQSGAEVKKPGASVKVSCKASGYTFTSYWMHWVRQAPGQRLEWIGEANPTNGRTNYIEKFKSRATLTVDKSASTAYMELSSLRSEDTAVYYCARGTRAYHYWGQGTMVTVSS VL: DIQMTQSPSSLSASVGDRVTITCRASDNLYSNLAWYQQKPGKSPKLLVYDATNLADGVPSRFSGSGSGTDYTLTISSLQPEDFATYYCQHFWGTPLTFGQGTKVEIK ?
7.62

pKd for Hu15G11.HC32A Fab (antibody, V domains shown) VH: EVQLVQSGAEVKKPGASVKVSCKASGYTFTSAWMHWVRQAPGQRLEWIGEINPTNGRTNYIEKFKSRATLTVDKSASTAYMELSSLRSEDTAVYYCARGTRAYHYWGQGTMVTVSS VL: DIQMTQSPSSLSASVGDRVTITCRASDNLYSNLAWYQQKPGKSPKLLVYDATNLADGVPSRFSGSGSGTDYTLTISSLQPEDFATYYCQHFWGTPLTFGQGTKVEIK ?
8.13
